Form field: IC50 (one value per entry).
- Target: HEK293 cells expressing NR1/NR2B (Homo sapiens (Human), UniProt Q13224)
- Sequence (Q13224 27-1484, other chains not shown): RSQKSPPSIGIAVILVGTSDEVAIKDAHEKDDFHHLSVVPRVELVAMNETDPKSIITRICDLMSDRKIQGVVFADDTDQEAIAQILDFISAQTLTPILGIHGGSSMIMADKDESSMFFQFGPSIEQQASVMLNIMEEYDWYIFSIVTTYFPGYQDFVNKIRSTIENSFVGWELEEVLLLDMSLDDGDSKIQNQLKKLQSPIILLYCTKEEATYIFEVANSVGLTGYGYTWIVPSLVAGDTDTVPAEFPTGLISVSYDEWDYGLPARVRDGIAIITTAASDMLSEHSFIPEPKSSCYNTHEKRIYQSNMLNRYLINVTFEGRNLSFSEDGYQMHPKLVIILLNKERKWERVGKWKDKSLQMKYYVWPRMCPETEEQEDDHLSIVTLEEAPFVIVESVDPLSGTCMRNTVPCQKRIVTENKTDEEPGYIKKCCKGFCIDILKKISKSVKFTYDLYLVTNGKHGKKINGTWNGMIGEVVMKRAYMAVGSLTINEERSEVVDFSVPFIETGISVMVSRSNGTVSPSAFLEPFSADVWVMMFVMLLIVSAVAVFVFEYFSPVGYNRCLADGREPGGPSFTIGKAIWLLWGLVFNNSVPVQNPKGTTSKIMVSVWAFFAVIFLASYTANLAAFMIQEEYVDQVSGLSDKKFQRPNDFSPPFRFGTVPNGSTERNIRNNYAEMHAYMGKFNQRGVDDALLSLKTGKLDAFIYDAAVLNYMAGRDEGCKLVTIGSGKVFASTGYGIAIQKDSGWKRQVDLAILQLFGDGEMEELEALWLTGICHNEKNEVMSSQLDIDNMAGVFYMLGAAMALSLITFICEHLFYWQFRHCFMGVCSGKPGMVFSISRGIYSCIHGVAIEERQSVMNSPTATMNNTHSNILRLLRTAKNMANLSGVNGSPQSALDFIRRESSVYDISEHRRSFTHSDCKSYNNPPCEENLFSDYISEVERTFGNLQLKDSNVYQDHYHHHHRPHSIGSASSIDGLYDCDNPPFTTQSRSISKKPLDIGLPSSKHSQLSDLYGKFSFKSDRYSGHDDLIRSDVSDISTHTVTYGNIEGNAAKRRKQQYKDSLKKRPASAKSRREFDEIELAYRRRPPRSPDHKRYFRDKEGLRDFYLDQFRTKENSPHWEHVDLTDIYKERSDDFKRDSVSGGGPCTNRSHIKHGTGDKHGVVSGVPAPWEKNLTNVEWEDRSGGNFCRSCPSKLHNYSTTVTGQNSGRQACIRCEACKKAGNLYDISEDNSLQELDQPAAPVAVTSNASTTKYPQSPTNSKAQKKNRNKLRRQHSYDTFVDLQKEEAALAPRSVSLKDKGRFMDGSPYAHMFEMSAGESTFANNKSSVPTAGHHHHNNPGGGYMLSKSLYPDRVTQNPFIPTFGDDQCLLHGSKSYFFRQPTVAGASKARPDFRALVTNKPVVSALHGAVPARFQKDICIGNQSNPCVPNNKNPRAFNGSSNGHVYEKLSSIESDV
- Method Notes: NR2B NAM Assay (FDSS Ca2+ influx cell assay)
- Format: cell-based
- Cond: Ca2+ influx inhibition relative to MK801; 3 μM glutamate, 3 μM glycine, 1 mM Ca2+; read-out: NR2B NAM IC50
Value Kind: IC50 (nM)

Oc1ccc(C(O)CN2C[C@H]3C[C@H](Sc4ccccc4F)C[C@H]3C2)nc1 (stereo partly drawn) ... 20.6
O=C(CN1C[C@H]2C[C@H](Sc3ccccc3)C[C@H]2C1)c1ccc(O)cc1 ... 26.7
O=S(=O)(c1ccccc1)[C@H]1C[C@@H]2CN(CC(O)c3ccc(O)cc3)C[C@@H]2C1 (stereo partly drawn) ... 4370
O=C(CN1C[C@H]2C[C@@H](Oc3cccnc3)C[C@H]2C1)c1ccc(O)cc1 ... 5220
COc1cccc(O[C@H]2C[C@@H]3CN(CC(O)c4ccc(O)cn4)C[C@@H]3C2)c1F (stereo partly drawn) ... 50.8
COc1cccc(F)c1O[C@H]1C[C@@H]2CN(CC(=O)c3ccc(O)cn3)C[C@@H]2C1 ... 10000
O=C(CN1C[C@H]2C[C@H](Oc3cccnc3F)C[C@H]2C1)c1ccc(O)cn1 ... 10000
O=C(CN1C[C@H]2C[C@@H](Oc3ccc(F)cc3)C[C@H]2C1)c1ccc(O)c(F)c1 ... 53.2
Cc1ccc(O[C@H]2C[C@@H]3CN(CC(O)c4ccc(O)cn4)C[C@@H]3C2)c(F)n1 (stereo partly drawn) ... 60.2
COc1cccc(F)c1O[C@H]1C[C@@H]2CN(CC(O)c3ccc(O)cc3)C[C@@H]2C1 (stereo partly drawn) ... 249
O=C(CN1C[C@H]2C[C@H](Oc3ccc(F)cc3F)C[C@H]2C1)c1ccc(O)cn1 ... 1150
O=C(CN1C[C@H]2C[C@H](Oc3cccnc3)C[C@H]2C1)c1ccc(O)c(F)c1 ... 434
Oc1ccc(C(O)CN2C[C@H]3C[C@H](Oc4ccncc4)C[C@H]3C2)cc1 (stereo partly drawn) ... 4470
COc1ccc(O[C@H]2C[C@@H]3CN(CC(=O)c4ccc(O)cn4)C[C@@H]3C2)cc1 ... 10000
N#Cc1cccc(O[C@H]2C[C@@H]3CN(CC(=O)c4ccc(O)cn4)C[C@@H]3C2)c1 ... 10000
COC(CN1C[C@H]2C[C@H](Oc3ccc(F)cc3)C[C@H]2C1)c1ccc(OCc2ccccc2)cc1 (stereo partly drawn) ... 10000
N#Cc1ccc(O[C@H]2C[C@@H]3CN(CC(O)c4ccc(O)cc4)C[C@@H]3C2)cc1 (stereo partly drawn) ... 47.4
COc1ccc(F)c(O[C@H]2C[C@@H]3CN(CC(=O)c4ccc(O)cn4)C[C@@H]3C2)c1 ... 10000
Oc1ccc(C(O)CN2C[C@H]3C[C@H](Oc4ccc(F)cc4)C[C@H]3C2)cc1 (stereo partly drawn) ... 13
O=C(CN1C[C@H]2C[C@H](S(=O)(=O)c3ccccc3)C[C@H]2C1)c1ccc(O)c(F)c1 ... 10000
N#Cc1ccc(O[C@H]2C[C@@H]3CN(CC(=O)c4ccc(O)c(F)n4)C[C@@H]3C2)cc1 ... 10000
O=C(CN1C[C@H]2C[C@H](Oc3ccc(F)nc3)C[C@H]2C1)c1ccc(O)cc1 ... 55.2
COc1ncccc1O[C@H]1C[C@@H]2CN(CC(=O)c3ccc(O)cc3)C[C@@H]2C1 ... 10000
Oc1ccc([C@H](O)CN2C[C@H]3C[C@H](Oc4ccccc4)C[C@H]3C2)nc1 ... 5.24
COc1ccc(O[C@H]2C[C@@H]3CN(CC(O)c4ccc(O)cc4)C[C@@H]3C2)cc1 (stereo partly drawn) ... 51.6
Oc1ccc(C(O)CN2C[C@H]3C[C@H](Oc4ccccc4Cl)C[C@H]3C2)nc1 (stereo partly drawn) ... 38
N#Cc1ccc(O[C@H]2C[C@@H]3CN(CC(O)c4ccc(O)c(F)n4)C[C@@H]3C2)cc1 (stereo partly drawn) ... 367
O=C(CN1C[C@H]2C[C@H](Oc3ccccc3F)C[C@H]2C1)c1ccc(O)cc1 ... 16.8
Oc1ccc(C(O)CN2C[C@H]3C[C@H](Oc4ccc(F)c(F)c4)C[C@H]3C2)cc1 (stereo partly drawn) ... 14
Oc1ccc(C(O)CN2C[C@H]3C[C@H](Oc4ccc(F)cc4)C[C@H]3C2)nc1F (stereo partly drawn) ... 30.2
Cc1cccc(O[C@H]2C[C@@H]3CN(CC(O)c4ccc(O)cc4)C[C@@H]3C2)c1F (stereo partly drawn) ... 72.6
O=C(CN1C[C@H]2C[C@H](Oc3ccc(F)cc3)C[C@H]2C1)c1cnn(Cc2ccccc2)c1 ... 10000
COc1cccc(F)c1O[C@H]1C[C@@H]2CN(CC(=O)c3ccc(O)cc3)C[C@@H]2C1 ... 466

* * *

- Target: HEK293 cells expressing NR1/NR2B (Homo sapiens (Human), UniProt Q13224)
- Method Notes: NR2B NAM Assay (FDSS Ca2+ influx cell assay)
- Format: cell-based
- Cond: Ca2+ influx inhibition relative to MK801; 3 μM glutamate, 3 μM glycine, 1 mM Ca2+; read-out: NR2B NAM IC50
Response field label: string, one of criterion met (IC50 strictly below 200 nM) or criterion not met.

Oc1ccc(C(O)CN2C[C@H]3C[C@H](Oc4cnccn4)C[C@H]3C2)cc1 (stereo partly drawn) ... criterion not met
O=C(CN1C[C@H]2C[C@H](Oc3ccccc3)C[C@H]2C1)c1ccc(O)cn1 ... criterion not met
COc1ccc(O[C@@H]2C[C@@H]3CN(CC(=O)c4ccc(O)c(F)c4)C[C@@H]3C2)cc1 ... criterion not met
O=C(CN1C[C@H]2C[C@H](Oc3cncnc3)C[C@H]2C1)c1ccc(O)cc1 ... criterion not met
N#Cc1ccc(O[C@H]2C[C@@H]3CN(CC(=O)c4ccc(O)cc4)C[C@@H]3C2)cc1 ... criterion met
O=C(CN1C[C@H]2C[C@H](Oc3ccccc3)C[C@H]2C1)c1ccc(O)cc1 ... criterion met

* * *

- Target: HEK293 cells expressing NR1/NR2B (Homo sapiens (Human), UniProt Q13224)
- Method Notes: NR2B NAM Assay (FDSS Ca2+ influx cell assay)
- Assay type: cell-based
- Cond: Ca2+ influx inhibition relative to MK801; 3 μM glutamate, 3 μM glycine, 1 mM Ca2+; read-out: NR2B NAM IC50
Response field label: string, one of 1 (yes) (IC50 strictly below 70 nM) or 0 (no).

O=C(CN1C[C@H]2C[C@H](Oc3ccccc3Cl)C[C@H]2C1)c1ccc(O)cn1 ... 0 (no)
O=C(CN1C[C@H]2C[C@H](Oc3cccc4cnccc34)C[C@H]2C1)c1ccc(O)cc1 ... 0 (no)
O=C(CN1C[C@H]2C[C@H](Oc3ccc(F)nc3)C[C@H]2C1)c1ccc(O)cn1 ... 0 (no)
Oc1ccc(C(O)CN2C[C@H]3C[C@H](Oc4c(F)cccc4F)C[C@H]3C2)nc1 (stereo partly shown) ... 1 (yes)
COc1ccc(O[C@@H]2C[C@@H]3CN(CC(=O)c4ccc(O)cn4)C[C@@H]3C2)cc1 ... 0 (no)
COc1ccc(O[C@H]2C[C@@H]3CN(CC(=O)c4ccc(O)cc4)C[C@@H]3C2)cc1 ... 1 (yes)
Oc1ccc(C(O)CN2C[C@H]3C[C@H](Oc4cccc5cnccc45)C[C@H]3C2)cc1 (stereo partly shown) ... 0 (no)
Cc1ncccc1O[C@H]1C[C@@H]2CN(CC(=O)c3ccc(O)cc3)C[C@@H]2C1 ... 0 (no)
Oc1ccc([C@@H](O)CN2C[C@H]3C[C@H](Oc4cccnc4F)C[C@H]3C2)nc1 ... 1 (yes)
N#Cc1ccc(O[C@H]2C[C@@H]3CN(CC(O)c4ccc(O)cn4)C[C@@H]3C2)cc1 (stereo partly shown) ... 1 (yes)
O=C(CN1C[C@H]2C[C@H](Oc3ccc(F)cc3)C[C@H]2C1)c1ccc(O)c(F)n1 ... 0 (no)
Oc1ccc(C(O)CN2C[C@H]3C[C@@H](Oc4cc(F)cc(F)c4)C[C@H]3C2)nc1 (stereo partly shown) ... 0 (no)
COc1cccc(O[C@H]2C[C@@H]3CN(CC(=O)c4ccc(O)cn4)C[C@@H]3C2)c1F ... 0 (no)
Cc1cccc(O[C@H]2C[C@@H]3CN(CC(=O)c4ccc(O)cn4)C[C@@H]3C2)c1F ... 0 (no)
O=C(CN1C[C@H]2C[C@H](Oc3ccc(F)cc3F)C[C@H]2C1)c1ccc(O)cc1 ... 1 (yes)
O=C(CN1C[C@H]2C[C@H](Oc3ccccc3F)C[C@H]2C1)c1ccc(O)cn1 ... 0 (no)
COc1cccc(O[C@H]2C[C@@H]3CN(CC(=O)c4ccc(O)cn4)C[C@@H]3C2)c1 ... 0 (no)
Oc1ccc(C(O)CN2C[C@H]3C[C@H](Oc4cncc(F)c4)C[C@H]3C2)cc1 (stereo partly shown) ... 0 (no)
O=C(CN1C[C@H]2C[C@H](Oc3cccc(F)c3F)C[C@H]2C1)c1ccc(O)cn1 ... 0 (no)
Oc1ccc(C(O)CN2C[C@H]3C[C@H](Oc4ccc(F)c(F)c4)C[C@H]3C2)nc1 (stereo partly shown) ... 1 (yes)
Oc1ccc(C(O)CN2C[C@H]3C[C@H](Oc4ccc(F)nc4)C[C@H]3C2)cc1 (stereo partly shown) ... 0 (no)
COc1ccc(O[C@H]2C[C@@H]3CN(CC(O)c4ccc(O)c(F)n4)C[C@@H]3C2)cc1 (stereo partly shown) ... 0 (no)
COc1cccc(O[C@H]2C[C@@H]3CN(CC(=O)c4ccc(O)cc4)C[C@@H]3C2)c1F ... 0 (no)
O=C(CN1C[C@H]2C[C@H](Oc3ccc(F)cc3)C[C@H]2C1)c1ccc(O)cc1 ... 1 (yes)
